experiment: yeast display, Sf9 membrane polyspecificity reagent, FACS + sequencing; frameworks hold sequencing errors
ENDPOINT LABEL: polyreactivity (PSR sort gate)

• QVQLVESGGGLVQAGGSLRLSCAASGSIFNRYAMGCYRQATGKERELVAAINSRGGSTSYADSVKGRFTISRDIAKNTVYLQMNSLKPEDTAVYYCAADRGVNSYGYWGQGTQETVSS = high polyreactivity
• QVQLVESGGGLVQAGGSLRLSCAASGRIFRLYAMGWYRQAPGKERELVATITSGGTYYADSVKGRFTISRDNAKNTVYLQMNSLKPEDTAVYYCTARRRLRYDYWGQGTQVTVSS = low polyreactivity
• QVQLVESGGGLVQAGGSLRLSCAASGRIFTYDAMGWYRPAPGKERELLATITSGGSTNYADSVKGRFTISRDNAMNTVYLQMNSLKPEDTAVDYCATRKYRVPRSYYWGQGTQVTVSS = high polyreactivity
• QVQLVESGGGLVQAGGSLRLSCAASGFTFWAYTMGWYRQAPGKERELVAAITRSGGRTYYADSVKGRFTISRDNAKNTVYLQLNSLKPEDTAVYYCAAKIWSKDEKHDYWGQGTQVTGSS = high polyreactivity
• QVQLVESGGGLVQAGGSLRLSCAASGIIFLENAMGWYRQAPGKERELVAGISSGGNTNYADSVKGRFTISRDNAKNTVYLQMNSLKPEDTAVYYCNTDWYLPRYVLLGYFSGTEDYWGQGTQVTVSS = low polyreactivity

###

assay: yeast display, Sf9 membrane polyspecificity reagent, FACS + sequencing; frameworks hold sequencing errors
ENDPOINT LABEL: polyreactivity (PSR sort gate)

• QVQLVESGGGLVQAGGSLRLSCAASGSIFNSNVMGWYRQAPGKERELVAAISTSGGSTHYADSVKGRFTISRDNAKNTVYLQMNSLKPEDTAVYYCAARVSSYSQLYYYWGQGTQVTVSS = high polyreactivity
• QVQLGESGGGLVQEGGSLRLSCAASGRILSRYAKGWYRQAPGKERELVAAISRSGGSTYYADSVKGRFTISRDNAKNTVYLQMNSLKPEDTAVYYWARDVSLSTGYDYWGQGTQVTVSS = high polyreactivity
• QVQLVESGGGLVQAGGSLRLSCAASGFIFRWYAMGWYRQAPGKERELVAAISRSGDSTYYADSVKGRFTISRDNAKNTVYLQMNSLKPEETAVYYCAADDRYYTYGYDYWGQGTQVTVSS = low polyreactivity
• QVQLVESGGGLVQAGGSLRLSCAASGLIFKSYLMGSYRQAPGKERELVAGITGSGGTTYYADSVKGRFTISRDNAKNTVYLQMNSLKPEDTAVYYCAARSRSRPKYDYWGQGTQVTVSS = high polyreactivity
• QVQLVESGGGLVQAGGSLRLSCAHSASNFGIYAMGWYRQAPGKERELVAPITWYGTSTYYADSVKGRFTISRDNSKNSVYLQMNSLKPEDTAVYYCATAYIQVSATFYEYEYWGQGTQVTVSS = low polyreactivity
• QVQLVESGGGIVQAGGSLRLSCPASGIIFYLNPMGWSRQAPGKERELVAAITRGGSTYYADSVKGRFTISRDNEKNTVYLQMNSLKPEDTAVYYWAAKHGPGYRRWYDYWGQGTQVTVSS = high polyreactivity
• QVQLVESGGGLVQAGGSLRLSCAASGRIFRYYAMGWYRQAPGKERELVAAISGTGGNTYYADSVKGRSTISRDNAKNTVYLQMNSLKPEDTAVYYCAADQEWYYYFDSFAYYILDYWGQGTQVTVSS = high polyreactivity
• QVQLVESGGGLVQAGGSLRLSCAASGRIFWDNDMGWYRQAPGKERELVAAISRRGGSTSYADSVKGRFTISRDNAKNTVYLQMYSLKPEDTAVYYCIVRTRWTRVRRYDYWGQGTQVTVSS = high polyreactivity
• QVQLVESGGGLVQAGGSLRLSCAASGSTFKRNAMGWYRQAPGKERELVAAISWRGTSTYYADSVKGRFTISRDNAKNTVYLQMNSLKPEDTAVYYCAADRGSSVRYGYWGQGTQVTVSS = high polyreactivity
• QVQLVESGGGLVQAGGSLRLSCAASGRIFVYYAMGWYRQAPGKERELVAAITYSVDSTYYADSVKGRFTISRDNAKNTVYLQMNSLKPEDTAVYYCATDVDLAYGYQYEYWGQGTQVTVSS = low polyreactivity
• QVQLVESGGGLVQAGGSLRLSCAASGGTFQSNALGWYRQAPAKERELVASITSRGSSTYYADSVKGRFTISRDNAKNTVYLQMNSLKPEDTAVYYCAKGRSWQIYYKGGIKGGYWGQGTQVTVSS = low polyreactivity
• QVQLVESGGGLVQAGGSLRLSCAASGRTFYANTMGWYRQAPGKERELVAGITSGGSTSYADSVKGRFTISRDNAKNTVYLQMNSLKPVDTAVYYCAAQFYRYTATGYYADGYWGQGTQVTVSS = low polyreactivity
• QVQLVESGGGLVQAGGSLRLSCAASGYTFYFYAMGCYRQAPGKERELVAAITGGGTTSYADSVKGRFTISRDNAKNTVYLQMNSLKPEDTAVYYCNVLFADKSDYWGQGTQVTVSS = low polyreactivity
• QVQLVESGGGLVQAGGSLRLSCAASGFTFYGYVMGWYRQAPGKERELVASIRSRGSRTSYADSVKGRFTISRDNAKNTVYLQMNSLKPEDTAVYYCAASRGRLPYSSTSNGDYDYWGQGTQVTVSS = high polyreactivity
• QVQLVESGGGLVQAGGSLRLSCAASGFTFGHYAMGWYRQAPGKERELVAAIRWSGGSTYYADSVKGRITISRDHAKNTVYLQMNSLKPEDTAVYYCGARRFDGYDYDYWGQGTQVTESS = low polyreactivity
• QVQLVESGGGLVQAGGSLRLSCAASGRIFPEYAMGWYRQAPGKERELVAAITSGGHYADSVKGRFTISRDNAKNTVYLQINSLKPEDTAVYYCSALNVYGSADVTTLEMDYWGQGTLVTVSS = low polyreactivity

###

assay: yeast display, Sf9 membrane polyspecificity reagent, FACS + sequencing; frameworks hold sequencing errors
ENDPOINT LABEL: polyreactivity (PSR sort gate)

* QVQLVESGGGLVQAGGSLRLSCAASGRTIPIYAMGWYRQEPGKERYLVAAITYSGGSTYYADSVKGRFTISRDNAKNSVYLQMNSLKPEDTAVYYCAVDGTKPYWHQRYVYWGQGTQVTVSS | low polyreactivity
* QVQLVESGGGLVQAGGSLRLSCAASGSIFAHYAMGWYRQAPGKARELVAAISRGGGSTYYSDSVKGRFTISRDNAKNTVYLQMNSLKPEDTAVYYCAVVRSYRGINDYWGQGTQVTVTS | low polyreactivity
* QVQLVESGGGLVQAGGSLRLSCAASGYTIRGYVMGWYRQAPGKERELVAAISASGGRTYYADSVKGRFTISRDNAKNTVYLQMNSLKPEHTAVYYCAASKSKISSLDYWGQGTQVTVSS | high polyreactivity
* QVQLVESGGGIVQAGGSLRLSCAASGSSINLYAMGWYRQAPGKERELVAAINDDAGSTYYADSVKGRFTISRDNAKNTVYLQMNSLKPEDTAVYYCNAGSRSTEYDYWGQGTQVTVSS | low polyreactivity
* QVQLVESGGGLVQAGGSLRLSCAASGSIFAWYTMGWYRQAPGKERELVATITRGGSTTYADSVKGRFTISRDNAKITVYLQMNSLKPEDTAVYYCAADWRTKGYDSLGQGTQVTVSS | high polyreactivity
* QVQLVESGGGLVQAGGSLRLSCAASGFTFSKYTMGWYRQAPGKERELVAAITSGGSTYYADSVKGRFTISRDNAKNTVYLQMNSLKPEDTAVYYCNAESRHVFEDEYWGQGTQVTVSS | low polyreactivity
* QVQLLESGGGLFQAGGSLRLSCAASGLTFYRYAMGWYRKAPGKERELVAAISFSGGSTYYADSVKGRFTISRDNAKNTVYLQMNSLKPEDTAVYYCAASSYPYGYDYWGQGTQVTVSS | high polyreactivity
* QVQLVESGGGLVQAGGSLRLSCAASGITFSTYAMGWYRQAPGKERELVAAINWSGGSTRYADSVKGRFTISRDNAKNTVYLQMNSLKPEDTAVYYCAAEVQGQVGEFDYWGQGTQVTVSS | low polyreactivity
* QVQLVESGGGLVQAGGSLRLSCAASGFTFVYYVMGRYRPAPGKERDLVAAINAGGGSTYYADSVKGRFTISRDNAKNTVYLQMNSLKPEDTSVYYCAARYHTSTRPCRNYWGQGTQVTVSS | high polyreactivity
* QVQLVESGGGLVQEGGSLRLSCAASGYIFVRYAMGWYRQAPGKEREFVAAISSSGGSTRYADSVKGRFTISRDNAKYTVYLQMHRLKPEDTPVYYCAATSVARNGSPMYYWGQGTLVTVSS | high polyreactivity

###

assay: yeast display, Sf9 membrane polyspecificity reagent, FACS + sequencing; frameworks hold sequencing errors
ENDPOINT LABEL: polyreactivity (PSR sort gate)

• QVQLVESGGGLVQAGGSLRLSCAASGRPFRLNGMGWYRQAPGKERELVAAITWSGGRTYYADSVKGRFTISRDNAKTTVYLQMNSLKPEDTAVYDCAADYRYKSHWWYRRFDYWGQGTQVTVSS = high polyreactivity
• QVQLVESGGGLVQAGGSLRLSCAASGRIFYSYAMGWYRQAPGKERELVAAISSRTGSTYYADSVKGRFTISRDNAKNTVYLQMNSLKPEDTAVYYCAAQSGWLRYYYWGQGTLVTVSS = high polyreactivity
• QVQIVESGGGLVQAGVSLRISCAASGSTFADYTMGWYRQAPGKERELVAAISQSGARTYYADSVKGRFTISRDNAKNTVYLQMNSLKPEDTAVYYCAATKAASGPYFRYYYWGQGTQVTVSS = high polyreactivity
• QVQLVESGGGLVQAGGSLRLSCAASGRTFYIYVMGWDRQAPGKERELVAGITVRGGITNYADSVKGGFTSSRDNAKNTVYLQMNSLKPEDTAVYYCAVDDLGSEYDYWGQGTQVTVSS = low polyreactivity
• QVQLVESGGGLVQAGGSLRLSCAASGSTFTSYVMGWYRQAPGKEREFVAAITSSGGDTYYADSVKGRFTISRDNAKNTVYVQMNSLKPEDTEVYYCATRSYYRSSYYRNRYPYDYWGQGTLVTVSS = low polyreactivity
